Data provenance is ChEMBL document CHEMBL4251726.

target_entity: ATR/ATRIP (Homo sapiens)
Sequence (Q13535 whole entry): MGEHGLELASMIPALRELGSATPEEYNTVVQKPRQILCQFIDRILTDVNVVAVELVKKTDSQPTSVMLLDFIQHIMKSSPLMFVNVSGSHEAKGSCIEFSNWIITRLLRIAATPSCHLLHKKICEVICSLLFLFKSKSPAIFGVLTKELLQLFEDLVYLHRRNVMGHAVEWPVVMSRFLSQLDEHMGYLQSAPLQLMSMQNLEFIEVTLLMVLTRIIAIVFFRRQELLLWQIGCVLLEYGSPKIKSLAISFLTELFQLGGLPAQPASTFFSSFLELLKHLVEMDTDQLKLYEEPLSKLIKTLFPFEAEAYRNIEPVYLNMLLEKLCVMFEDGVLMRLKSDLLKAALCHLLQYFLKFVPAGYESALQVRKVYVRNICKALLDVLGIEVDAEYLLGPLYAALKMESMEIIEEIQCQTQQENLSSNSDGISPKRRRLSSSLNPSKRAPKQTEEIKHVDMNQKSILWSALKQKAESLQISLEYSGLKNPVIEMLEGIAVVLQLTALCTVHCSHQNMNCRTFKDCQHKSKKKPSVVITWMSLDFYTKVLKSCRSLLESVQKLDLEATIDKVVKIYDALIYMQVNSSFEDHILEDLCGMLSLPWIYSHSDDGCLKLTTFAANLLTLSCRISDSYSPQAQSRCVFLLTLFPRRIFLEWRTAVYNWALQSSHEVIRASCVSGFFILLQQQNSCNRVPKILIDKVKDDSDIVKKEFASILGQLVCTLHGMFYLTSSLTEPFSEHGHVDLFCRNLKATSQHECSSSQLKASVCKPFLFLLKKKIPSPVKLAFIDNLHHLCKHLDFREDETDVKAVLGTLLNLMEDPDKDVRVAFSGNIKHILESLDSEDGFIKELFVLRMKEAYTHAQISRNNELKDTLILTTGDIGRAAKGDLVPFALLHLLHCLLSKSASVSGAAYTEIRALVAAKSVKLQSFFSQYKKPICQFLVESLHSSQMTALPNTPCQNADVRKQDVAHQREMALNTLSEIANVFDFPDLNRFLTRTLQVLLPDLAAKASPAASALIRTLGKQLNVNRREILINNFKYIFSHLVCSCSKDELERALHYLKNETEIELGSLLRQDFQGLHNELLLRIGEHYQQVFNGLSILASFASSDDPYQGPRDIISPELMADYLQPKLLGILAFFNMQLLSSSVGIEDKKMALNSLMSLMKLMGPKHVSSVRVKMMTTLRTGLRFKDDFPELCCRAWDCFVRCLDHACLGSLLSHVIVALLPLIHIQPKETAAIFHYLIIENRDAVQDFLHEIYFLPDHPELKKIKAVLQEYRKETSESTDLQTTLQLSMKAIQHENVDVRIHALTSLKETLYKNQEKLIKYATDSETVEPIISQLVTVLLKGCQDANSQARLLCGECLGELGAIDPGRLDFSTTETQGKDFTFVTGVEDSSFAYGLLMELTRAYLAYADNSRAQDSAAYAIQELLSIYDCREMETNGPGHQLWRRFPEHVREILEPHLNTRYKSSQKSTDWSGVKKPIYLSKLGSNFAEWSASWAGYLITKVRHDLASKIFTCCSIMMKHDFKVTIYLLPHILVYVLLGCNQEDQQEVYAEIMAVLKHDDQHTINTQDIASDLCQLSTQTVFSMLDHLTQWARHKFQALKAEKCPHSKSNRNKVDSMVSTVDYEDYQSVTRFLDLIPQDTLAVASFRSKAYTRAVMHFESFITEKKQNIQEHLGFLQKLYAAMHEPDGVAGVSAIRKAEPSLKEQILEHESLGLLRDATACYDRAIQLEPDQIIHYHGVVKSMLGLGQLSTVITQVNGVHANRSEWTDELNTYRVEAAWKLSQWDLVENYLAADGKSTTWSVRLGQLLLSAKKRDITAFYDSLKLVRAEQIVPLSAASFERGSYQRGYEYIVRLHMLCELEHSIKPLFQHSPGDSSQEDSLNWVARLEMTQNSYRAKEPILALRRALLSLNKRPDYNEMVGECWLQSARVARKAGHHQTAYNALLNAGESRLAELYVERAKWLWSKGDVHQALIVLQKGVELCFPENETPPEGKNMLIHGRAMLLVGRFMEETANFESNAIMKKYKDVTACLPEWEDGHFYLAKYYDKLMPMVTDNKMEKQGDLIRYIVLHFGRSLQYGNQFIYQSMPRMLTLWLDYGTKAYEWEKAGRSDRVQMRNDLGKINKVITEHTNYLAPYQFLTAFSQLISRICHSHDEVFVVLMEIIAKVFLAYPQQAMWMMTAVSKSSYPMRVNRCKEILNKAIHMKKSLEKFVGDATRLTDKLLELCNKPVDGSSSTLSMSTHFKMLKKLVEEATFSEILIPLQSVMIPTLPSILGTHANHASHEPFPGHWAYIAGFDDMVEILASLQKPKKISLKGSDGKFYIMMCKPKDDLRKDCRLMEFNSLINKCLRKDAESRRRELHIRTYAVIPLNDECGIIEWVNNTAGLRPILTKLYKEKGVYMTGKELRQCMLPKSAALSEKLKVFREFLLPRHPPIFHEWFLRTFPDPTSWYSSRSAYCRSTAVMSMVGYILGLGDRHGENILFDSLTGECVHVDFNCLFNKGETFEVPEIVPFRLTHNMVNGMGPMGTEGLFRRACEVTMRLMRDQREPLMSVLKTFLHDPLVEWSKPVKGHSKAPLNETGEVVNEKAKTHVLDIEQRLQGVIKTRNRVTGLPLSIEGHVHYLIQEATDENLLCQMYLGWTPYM
Sequence (Q8WXE1 whole entry, further chain): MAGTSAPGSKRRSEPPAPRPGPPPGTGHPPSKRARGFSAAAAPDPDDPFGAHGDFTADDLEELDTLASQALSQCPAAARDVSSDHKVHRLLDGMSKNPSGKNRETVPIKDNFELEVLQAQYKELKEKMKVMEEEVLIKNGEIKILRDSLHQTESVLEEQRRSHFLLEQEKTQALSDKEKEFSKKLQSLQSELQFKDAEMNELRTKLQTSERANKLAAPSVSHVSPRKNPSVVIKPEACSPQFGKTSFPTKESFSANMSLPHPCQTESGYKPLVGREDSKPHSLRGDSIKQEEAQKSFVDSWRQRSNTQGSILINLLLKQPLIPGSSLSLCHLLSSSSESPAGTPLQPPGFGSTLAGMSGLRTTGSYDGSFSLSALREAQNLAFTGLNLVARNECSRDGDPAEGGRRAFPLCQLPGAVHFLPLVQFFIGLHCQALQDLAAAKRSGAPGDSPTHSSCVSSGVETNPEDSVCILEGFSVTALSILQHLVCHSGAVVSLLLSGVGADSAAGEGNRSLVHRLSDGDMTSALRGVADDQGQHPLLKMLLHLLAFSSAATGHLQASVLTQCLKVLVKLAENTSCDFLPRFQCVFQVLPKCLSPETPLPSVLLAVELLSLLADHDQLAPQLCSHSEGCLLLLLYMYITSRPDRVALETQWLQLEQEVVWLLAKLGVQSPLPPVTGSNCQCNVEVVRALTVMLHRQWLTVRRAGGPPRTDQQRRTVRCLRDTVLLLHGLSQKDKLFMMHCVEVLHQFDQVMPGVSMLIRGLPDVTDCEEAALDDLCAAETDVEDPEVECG
protocol_notes: Inhibition of recombinant human full length ATR/ATRIP expressed in mammalian expression system using c-Myc-tagged p53 as substrate incubated for 15 mins followed by substrate addition measured after 25 to 35 mins by TR-FRET assay
pIC50: −log10 of the molar value.
measure: pIC50

[[record]]
mol = "CCNc1cnc2[nH]ccc2c1-c1nc2c(c(C(C)(C)S(C)(=O)=O)n1)OC[C@@H]1COC[C@@H](C)N21"
recorded_measurement = "8.00 to 9.00"

[[record]]
mol = "CNc1cnc2[nH]ccc2c1-c1nc2c(c(C(C)(C)O)n1)OC[C@@H]1COC[C@@H](C)N21"
recorded_measurement = "> 9.00"

[[record]]
mol = "CNc1nccn1-c1nc2c(c(C(C)(C)S(C)(=O)=O)n1)OC[C@@H]1COC[C@@H](C)N21"
recorded_measurement = "7.00 to 8.00"

[[record]]
mol = "C[C@@H]1COC[C@H]2COc3c(nc(N(C)c4ccn[nH]4)nc3C(C)(C)S(C)(=O)=O)N21"
recorded_measurement = "7.00 to 8.00"

[[record]]
mol = "CNc1nc2ccccc2n1-c1nc2c(c(C(C)(C)S(C)(=O)=O)n1)OC[C@@H]1COC[C@@H](C)N21"
recorded_measurement = "> 9.00"

[[record]]
mol = "CNc1cnc2[nH]ccc2c1-c1nc2c(c(C(C)(C)S(C)(=O)=O)n1)OC[C@@H]1COC[C@@H](C)N21"
recorded_measurement = "> 9.00"

